# Protocol details: Intrinsic clearance in human microsomes
# Assay type: ADME, Microsome
Examples of molecules with documented microsomal CLint follow.

// worked examples, microsomal CLint included
[
  {
    "Molecule": "O=C(NCc1ccccc1)c1ccc(Oc2ccc(C#C[C@]3(O)CN4CCC3CC4)cc2)cc1",
    "microsomal CLint": "< 2 µL/min/mg"
  },
  {
    "Molecule": "O=C(NC1CCCS(=O)(=O)C1)c1ccc(Oc2ccc(C#C[C@]3(O)CN4CCC3CC4)cc2)cc1 (single isomer, unassigned; diastereomer 2)",
    "microsomal CLint": "< 2 µL/min/mg"
  }
]

Now look at this entry.
Query: Requested field: microsomal CLint. Item: CNC(=O)N1CCC(NC(=O)c2ccc(Oc3ccc(C#C[C@]4(O)CN5CCC4CC5)cc3)cc2)CC1
Reply: < 2 µL/min/mg
